# Lookup of reported melting point keyed by entry
value_kind: melting point

Cn1cc(-c2cccc(Br)c2)c(=O)c(-c2cccc(C(F)(F)F)c2)c1    151 to 153 °C
CCN1CCC(=O)C(=C2SC=CS2)C1=O    114 to 117 °C
O=C1NC(=O)C(c2c[nH]c3ccccc23)C1c1cc2c3c(ccn3CCC2)c1 (stereo not given)    141 to 145 °C
O=C(O)c1cc(-c2ccc(C(F)(F)F)cc2)c2c3c(ccc2c1)OCO3    207 to 209 °C
Cc1cc(Cn2nc(C(F)(F)C(F)(F)F)nc2C(F)(F)F)ccc1NC(=O)c1cccc(Br)c1C(=O)N[C@@H](C)CS(C)(=O)=O    104 to 108 °C
O=C(NC1CCCCC1)c1c(O)c2ccccc2[nH]c1=O    221 °C
Cc1ccnc(Nc2nc(-c3ccc(-c4ccccn4)s3)cs2)c1    185 to 187 °C
O=C(O)CCc1cn(Cc2ccc(OCc3csc(-c4cnccn4)n3)cc2)cc1-c1ccccc1    137 to 138 °C
COc1cnc(NS(=O)(=O)c2cccc(Cl)c2Cl)c(OC)n1    138 to 139 °C
NC(=O)C(c1ccc(F)c(F)c1)c1ccccn1 (racemic)    123 to 124 °C
Cc1oc(-c2ccccc2)nc1CCOc1ccc(CCCCC2OC(=O)NC2=O)cc1 (stereo not given)    136 to 137 °C
CCCCCCCCCCCCc1ccc(S(=O)(=O)Nc2nnc(C(=O)OCC)s2)cc1    96 to 97 °C
C=CCCC(=O)N1CCc2nnc(NN)cc2C1    132 to 134 °C
O=c1ccccn1[C@@H]1c2cc([N+](=O)[O-])ccc2OC(CF)(CF)[C@H]1O (relative stereo)    226 to 228 °C
Cc1cccc(C(=O)N(NC(=O)NS(=O)(=O)c2ccc(Cl)cc2)C(C)(C)C)c1    184 to 188 °C
CCOC(=O)CC[C@H](NC(=O)c1ccc2c(c1)CCN2)C(=O)OCC    96 to 97 °C
COc1cc(S(=O)(=O)Nc2ccccc2)c(OC)cc1NC(=O)[C@@](C)(O)C(F)(F)F    194 to 195 °C
O=C1NCCC[C@@H]1NS(=O)(=O)c1cccc(F)c1    159 to 160 °C
Cc1cc(S(F)(F)(F)(F)F)ccc1C(=O)NC(=N)N    183 to 184 °C
CCn1cc(-c2cccc(C(F)(F)F)c2)c(=O)n1-c1cccc(C(F)(F)F)c1    110 to 111 °C
COc1ccc(OC)c(C=CC(=O)C=Cc2cc(OC)ccc2OC)c1    103 to 104 °C
C[C@@H](c1ccc(F)cc1)N1CCN(c2cc(Nc3ccc4cccnc4c3)ncn2)CC1    206 to 207 °C
COC(=O)c1ccc(O)c(C2CCCC2)c1    114 to 116 °C
Ic1cccc2c(SSc3cccc4c(I)cccc34)cccc12    202 to 203 °C
Cn1c(=O)oc2cc(CCCN3CCOCC3)cnc21    < 80 °C
CS(=O)c1ccc(-c2nn(Cc3ccccc3)c(=O)cc2-c2ccc(F)cc2)cc1 (stereo not given)    198 °C
COC(=O)Cc1csc(NS(=O)(=O)c2cccc(Cl)c2C)n1    187 °C
Nc1nc2ccccc2c2c1ncn2CCOCCCc1cccs1    130 to 132 °C
CCCc1c2nc(C(=O)OC)cc(C(F)(F)C(F)(F)C(F)(F)F)c2cc2c(=O)cc(C(=O)OCC)oc12    144 to 146 °C
CCOCc1nc2c(N)nc3ccccc3c2n1CCCCC(N)=O    198 to 200 °C
C[C@@H](NC(=O)c1cnn(-c2ccc(Cl)cc2)c1C1CC1)[C@](O)(Cn1cncn1)c1ccc(F)cc1F    181 to 182 °C
CCCCCCCCOC(=O)c1ccc(C(=O)O)cc1    113 °C
N#CC(=Cc1ccc2c(c1)OCCO2)c1cccnc1    158 to 159 °C
CCOC(=O)c1cn(C2CC2)c2cc(F)c(F)c(N(Cc3ccccc3)C(C)=O)c2c1=O    147 to 150 °C
CCC(CC)Oc1cc(C)nc2c1CCC(=O)N2c1c(C)cc(C)cc1C    138 to 140 °C
O=c1nc(-c2ccccc2)c2ccsc2n1CC1CC1    191 to 192 °C
CC(C)(C)OC(=O)[C@@H]1CSC(C2CCCCC2)N1C(=O)CNC(=O)Nc1cccc(CC(=O)O)c1 (stereo not given in full)    115 °C
CC(=O)Oc1ccc(C2=COc3ccccc3O2)cc1    123 to 125 °C
CC(C)c1cccc(C(C)C)c1OCC(N)=O    136 to 138 °C
Cc1ccc(Cl)cc1NC(=S)Nc1nccs1    197 to 198 °C
